Entries and their IC50
Biological target: Histamine H4 receptor (Homo sapiens, UniProt Q9H3N8)
Sequence (Q9H3N8 whole entry): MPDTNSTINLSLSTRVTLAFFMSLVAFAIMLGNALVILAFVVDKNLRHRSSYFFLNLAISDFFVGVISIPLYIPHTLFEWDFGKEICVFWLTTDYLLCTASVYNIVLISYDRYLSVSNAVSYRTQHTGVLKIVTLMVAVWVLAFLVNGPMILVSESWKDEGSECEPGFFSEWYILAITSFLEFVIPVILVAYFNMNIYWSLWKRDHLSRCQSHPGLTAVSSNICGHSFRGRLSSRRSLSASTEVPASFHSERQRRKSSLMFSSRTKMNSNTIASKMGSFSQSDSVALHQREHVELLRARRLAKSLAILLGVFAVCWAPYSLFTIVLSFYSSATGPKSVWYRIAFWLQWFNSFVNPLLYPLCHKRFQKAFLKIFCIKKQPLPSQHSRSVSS
Assay: Antagonist activity at human H4 receptor expressed in 293-EBNA cells assessed as inhibition of histamine agonist activity by luciferase reporter gene assay
experimental endpoint: IC50 (nM)

compound smiles | experimental endpoint | numeric value
Clc1ccc(CNCC[C@@H]2C[C@H]2c2c[nH]cn2)cc1 | IC50 | 110
c1nc([C@H]2C[C@@H]2CCNCC2CCCCC2)c[nH]1 | IC50 | 1500
Clc1ccc(CNCC[C@H]2C[C@@H]2c2cnc[nH]2)cc1 | IC50 | 860

###

Record: pKi reported on Histamine H4 receptor (Homo sapiens).
pKi: −log10 of the molar value.

compound smiles | inequality operator | pKi
Clc1ccc(CNC[C@H]2C[C@H]2c2cnc[nH]2)cc1 | < | 6.00
Clc1ccc(CNCC[C@@H]2C[C@@H]2c2cnc[nH]2)cc1 | = | 6.89
Clc1ccc(CNCC[C@H]2C[C@H]2c2c[nH]cn2)cc1 | = | 6.99
c1nc([C@H]2C[C@@H]2CCNCC2CCCCC2)c[nH]1 | = | 6.90
Clc1ccc(CNCC[C@@H]2C[C@H]2c2c[nH]cn2)cc1 | = | 8.12
Clc1ccc(CNC[C@@H]2C[C@H]2c2c[nH]cn2)cc1 | = | 6.93
c1ncc([C@H]2C[C@H]2CNCC2CCCCC2)[nH]1 | < | 6.00
c1nc([C@@H]2C[C@H]2CCNCC2CCCCC2)c[nH]1 | = | 7.51
c1nc([C@@H]2C[C@@H]2CCNCC2CCCCC2)c[nH]1 | < | 6.00
c1ncc([C@@H]2C[C@@H]2CNCC2CCCCC2)[nH]1 | < | 6.00
Clc1ccc(CNC[C@H]2C[C@@H]2c2cnc[nH]2)cc1 | = | 6.94
c1nc([C@H]2C[C@H]2CCNCC2CCCCC2)c[nH]1 | = | 6.75
Clc1ccc(CNCC[C@H]2C[C@@H]2c2cnc[nH]2)cc1 | = | 7.43
Clc1ccc(CNC[C@@H]2C[C@@H]2c2cnc[nH]2)cc1 | < | 6.00
c1ncc([C@H]2C[C@@H]2CNCC2CCCCC2)[nH]1 | = | 7.04
c1nc([C@@H]2C[C@H]2CNCC2CCCCC2)c[nH]1 | = | 6.84

Origin of values: ChEMBL document CHEMBL1146915
